tested on: AVP-V1 sites (Rattus norvegicus)
Sequence (P30560 whole entry): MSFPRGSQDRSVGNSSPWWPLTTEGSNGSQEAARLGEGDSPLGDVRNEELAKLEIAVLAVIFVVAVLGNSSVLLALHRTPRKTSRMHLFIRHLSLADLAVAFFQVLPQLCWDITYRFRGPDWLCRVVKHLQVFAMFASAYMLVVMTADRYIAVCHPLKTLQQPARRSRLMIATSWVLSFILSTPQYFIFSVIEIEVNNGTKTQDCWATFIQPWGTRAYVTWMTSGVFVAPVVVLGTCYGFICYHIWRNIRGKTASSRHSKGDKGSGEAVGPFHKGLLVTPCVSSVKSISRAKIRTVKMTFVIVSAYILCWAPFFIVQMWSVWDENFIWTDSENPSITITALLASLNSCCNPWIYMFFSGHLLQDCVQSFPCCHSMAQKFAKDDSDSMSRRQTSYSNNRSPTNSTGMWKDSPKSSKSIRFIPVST
assay summary: [3H]AVP radioligand binding to male rat liver crude membrane preparation (AVP-V1 sites)
test conditions: male rat liver membranes; 1 nM [3H]AVP; 30 min at 30° C.; read-out: Receptor Binding Results IC50 (nM) [^3 H]-AVP-V1
*1 amine or outer side, *2 acyl side, *3 side chain or, on linkers, in order; H or OH if unused. Where a SMILES comes first, the peptide text is derived from it. [ ]: non-standard residue; d: D form. X13 = CC[C@H](C)[C@H](NC(=S)[C@@H](Cc1ccccc1)N[*:1])C(=O)[*:2]; Piz(1,6-dehydro) = O=C(O)[C@@H]1CCC=NN1; dPiz(1,6-dehydro) = O=C(O)[C@H]1CCC=NN1; X9 = O=C([C@@H]1C=CC=NN1[*:1])[*:2]; dNMeCha = CN[C@H](CC1CCCCC1)C(=O)O; X5 = O=C([C@@H]1CCCNN1[*:1])[*:2]; X1 = O=C([C@H]1CCCNN1[*:1])[*:2]; dNMeF = CN[C@H](Cc1ccccc1)C(=O)O; dCha = N[C@H](CC1CCCCC1)C(=O)O
# IC50 listing for each entry below
readout: IC50 (nM)

CC[C@H](C)[C@@H]1NC(=S)[C@@H](Cc2ccccc2)NC(=O)[C@@H]2CCCN2C(=O)[C@@H](Cc2ccccc2)N(C)C(=O)[C@@H]2CCC=NN2C(=O)[C@H]2CCC=NN2C1=O [Example 10] (cyclo(P[X13][dPiz(1,6-dehydro)][Piz(1,6-dehydro)][dNMeF])) : 300
CC[C@H](C)[C@@H]1NC(=O)[C@@H](Cc2ccccc2)NC(=O)[C@@H]2CCCN2C(=O)[C@@H](Cc2ccccc2)N(C)C(=O)[C@@H]2C=CC=NN2C(=O)[C@H]2CCC=NN2C1=O [Example 8] (cyclo(I[dPiz(1,6-dehydro)][X9][dNMeF]P[dF])) : 1410
CC[C@H](C)[C@@H]1NC(=O)[C@@H](CC2CCCCC2)NC(=O)[C@@H]2CCCN2C(=O)[C@@H](CC2CCCCC2)N(C)C(=O)[C@@H]2CCCNN2C(=O)[C@H]2CCCNN2C1=O [Example 1] (cyclo(I[X1][X5][dNMeCha]P[dCha])) : 2400

* * *

tested on: uterine OT receptors (Rattus norvegicus)
Construct: from tissue; host or cells: uterus of DES-treated rats, crude membranes
Sequence (P70536 whole entry): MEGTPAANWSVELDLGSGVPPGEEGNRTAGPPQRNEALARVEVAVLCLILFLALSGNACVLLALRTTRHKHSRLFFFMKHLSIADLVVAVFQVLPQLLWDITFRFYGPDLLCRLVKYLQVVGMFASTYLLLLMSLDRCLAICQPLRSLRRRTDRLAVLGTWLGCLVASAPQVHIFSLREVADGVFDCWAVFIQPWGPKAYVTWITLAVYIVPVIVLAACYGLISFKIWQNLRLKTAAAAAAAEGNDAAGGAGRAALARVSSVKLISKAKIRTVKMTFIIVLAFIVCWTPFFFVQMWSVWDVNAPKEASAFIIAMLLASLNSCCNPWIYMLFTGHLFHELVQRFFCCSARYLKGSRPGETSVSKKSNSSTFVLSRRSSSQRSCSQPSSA
assay summary: [3H]OT radioligand binding to uterine OT receptors, crude membrane preparation
test conditions: uteri of DES-treated rats; 1 nM [3H]OT; 60 min, 22° C.; inhibits specific binding by 50%; read-out: Receptor Binding Results IC50 (nM) [3H]OT
*1 amine or outer side, *2 acyl side, *3 side chain or, on linkers, in order; H or OH if unused. Where a SMILES comes first, the peptide text is derived from it. [ ]: non-standard residue; d: D form. X13 = CC[C@H](C)[C@H](NC(=S)[C@@H](Cc1ccccc1)N[*:1])C(=O)[*:2]; X11 = CC(C)(C)OC(=O)CSC1=NN([*:1])[C@H](C(=O)[*:2])CC1; X2 = O=C([C@@H]1[C@@H](O)[C@@H](O)C=NN1[*:1])[*:2]; X4 = CN(C)CCNC1C=NN([*:1])[C@H](C(=O)[*:2])C1; X10 = O=C1CC[C@@H](C(=O)[*:2])N([*:1])N1; Piz(1,6-dehydro) = O=C(O)[C@@H]1CCC=NN1; X3 = C=C1C=NN([*:1])[C@H](C(=O)[*:2])C1; X7 = CSC1=NN([*:1])[C@H](C(=O)[*:2])CC1; dPiz(1,6-dehydro) = O=C(O)[C@H]1CCC=NN1; dNMeF = CN[C@H](Cc1ccccc1)C(=O)O
condition met if IC50 is below 200 nM. condition not met if not; exact matches included in condition not met.

CC[C@H](C)[C@@H]1NC(=O)[C@@H](Cc2ccccc2)NC(=O)[C@@H]2CCCN2C(=O)[C@@H](Cc2ccccc2)N(C)C(=O)[C@@H]2CC(NCCN(C)C)C=NN2C(=O)[C@H]2CCC=NN2C1=O (stereo partly shown) [Example 16] (cyclo(I[dPiz(1,6-dehydro)][X4][dNMeF]P[dF])) : condition not met
CC[C@H](C)[C@@H]1NC(=O)[C@@H](Cc2ccccc2)NC(=O)[C@@H]2CCCN2C(=O)[C@@H](Cc2ccccc2)N(C)C(=O)[C@@H]2CCC(SCC(=O)OC(C)(C)C)=NN2C(=O)[C@H]2CCC=NN2C1=O [Example 9] (cyclo(I[dPiz(1,6-dehydro)][X11][dNMeF]P[dF])) : condition not met
C=C1C=NN2C(=O)[C@H]3CCC=NN3C(=O)[C@H]([C@@H](C)CC)NC(=O)[C@@H](Cc3ccccc3)NC(=O)[C@@H]3CCCN3C(=O)[C@@H](Cc3ccccc3)N(C)C(=O)[C@@H]2C1 [Example 20] (cyclo(I[dPiz(1,6-dehydro)][X3][dNMeF]P[dF])) : condition met
CC[C@H](C)[C@@H]1NC(=S)[C@@H](Cc2ccccc2)NC(=O)[C@@H]2CCCN2C(=O)[C@@H](Cc2ccccc2)N(C)C(=O)[C@@H]2CCC=NN2C(=O)[C@H]2CCC=NN2C1=O [Example 10] (cyclo(P[X13][dPiz(1,6-dehydro)][Piz(1,6-dehydro)][dNMeF])) : condition met
CC[C@H](C)[C@@H]1NC(=O)[C@@H](Cc2ccccc2)NC(=O)[C@@H]2CCCN2C(=O)[C@@H](Cc2ccccc2)N(C)C(=O)[C@@H]2CCC(SC)=NN2C(=O)[C@H]2CCC=NN2C1=O [Example 5] (cyclo(I[dPiz(1,6-dehydro)][X7][dNMeF]P[dF])) : condition met
CC[C@H](C)[C@@H]1NC(=O)[C@@H](Cc2ccccc2)NC(=O)[C@@H]2CCCN2C(=O)[C@@H](Cc2ccccc2)N(C)C(=O)[C@@H]2CCC(=O)NN2C(=O)[C@H]2CCC=NN2C1=O [Example 3] (cyclo(I[dPiz(1,6-dehydro)][X10][dNMeF]P[dF])) : condition met
CC[C@H](C)[C@@H]1NC(=O)[C@@H](Cc2ccccc2)NC(=O)[C@@H]2CCCN2C(=O)[C@@H](Cc2ccccc2)N(C)C(=O)[C@@H]2[C@@H](O)[C@@H](O)C=NN2C(=O)[C@H]2CCC=NN2C1=O [Example 13] (cyclo(I[dPiz(1,6-dehydro)][X2][dNMeF]P[dF])) : condition not met

Each recorded value in this set is attributed to patent US5026703A.
